Field: pKd. Provide a value for each of the binders that follow.
Molecular target: (NVDP)3(NANP)2 (Plasmodium falciparum)
Experiment: SPR, antibody on chip
One number for each entry, as −log10 of the molar value.

# binder, pKd
measured = [
    ("AB-007074 (antibody, V domains shown) VH: QMQLVESGGGVVQPGRSLRLSCAASGFTFSTYAMHWVRQAPGQGLQWVAVISYHSTNKYYEDSVRGRFTISRDNSKNTLYLQMNSLRAEDTAVYYCARDGYSSSFFDFWGQGTLVTVSS VL: DIQMTQSPSTLSASVGDRVTITCRASQSISRWLAWYQQQPGKAPKLLMSGASVLESGVPSRFSGSGSGTEFTLTISSLQPDDFATYYCQHYNSYYVTFGQGTKVEIK", 5.41),
]

Now for a further binder.
INPUT: Return pKd (reported value) for this binder: AB-007034 (antibody, V domains shown) VH: QVQLVESGGGVVQPGRSLRLSCAASGFTFSTYAMHWVRQAPGQGLEWVAVISYHSTNKYYADSVRGRFTISRDNSKNTLYLQMNSLRAEDTAVYYCARDGYSSSFFDFWGQGTLVTVSS VL: DIQMTQSPSTLSASVGDRVTITCRASQSISRWLAWYQQQPGKAPKLLISGASVLESGVPSRFSGSGSGTEFTLTISSLQPDDFATYYCQHYNSYFVTFGQGTKVEIK
OUTPUT: 5.17
